Data credit: the supplement of paper PMC11061612

# Tested on: ME-180 (Cervical Carcinoma)
# test-protocol: combination Emax (second highest fraction inhibited in the dose matrix, 72 h); higher = more inhibition; extreme values may be limits of the assay
So I've got a bunch of compounds here, and I need their combination Emax values.

Hello, I would appreciate it if you could give combination Emax for each entry below.
1. Cc1cc2ncnn2cc1Nc1ncc2c(n1)n(C1CCOCC1)c(=O)n2C [AZD7648] + O=C(c1cc(Cc2n[nH]c(=O)c3ccccc23)ccc1F)N1CCN(C(=O)C2CC2)CC1 [Olaparib] (first compound max 10 µM, 7x7, partner max 10 µM)
2. C[C@@H](c1ccc2nccn2c1)n1nnc2ncc(-c3cnn(C)c3)nc21 [Savolitinib] + Cc1c2c(nn1C)CSCc1cc(n(C)n1)CSc1cc(c3ccccc3c1)OCCCc1c(C(=O)O)n(C)c3c-2c(Cl)ccc13 [AZD5991] (first compound max 1 µM, 7x7, partner max 1 µM)

1: 0.154; 2: 0.114
